- experiment-description: inhibition of NOD2-driven NF-kB reporter – cell-based, luminescence, uHTS, HEK293 (AID 1566)
- measurement-setup: HEK293 NOD2/NF-kB luciferase reporter, at 4 µM, active compounds read high
Out of some 290,000 compounds screened, about 1,800 (0.62%) were called active. This excerpt belongs to a sample that is enriched for actives.
observable: inhibition (%)
Give the quantity in %, number only.

Solved cases below.
INSERT INTO measurements (mol, observable, output_unit, val) VALUES
  ('O=[N+]([O-])c1cc(Cl)ccc1NCCNc1ncc(C(F)(F)F)cc1Cl', 'inhibition', '%', 12.4),
  ('CC1CCN(C(=O)c2ccc(CS(=O)(=O)Cc3ccccc3)cc2)CC1', 'inhibition', '%', 12.8),
  ('O=C(Nc1ccncc1)Nc1cccc(C(F)(F)F)c1', 'inhibition', '%', 18);

Give a short answer stating reported inhibition for "O=C(Nc1ccccc1)Nc1cccc(C(F)(F)F)c1" . -38.6

----------
- experiment-description: inhibition of NOD2-driven NF-kB reporter – cell-based, luminescence, uHTS, HEK293 (AID 1566)
- measurement-setup: HEK293 NOD2/NF-kB luciferase reporter, at 4 µM, active compounds read high
In all, about 290,000 compounds went through this assay and about 1,800 (0.62%) were called active. Shown is part of a subset that was picked to be rich in actives.
Documented inhibition across a set of compounds
Give the quantity in %, number only.

Give a short answer stating reported inhibition for CCCC(C(=O)NC1CCCC1)N(CC1CCCO1)C(=O)c1snc(C(N)=O)c1N (stereo not drawn) . -7.3

Give a short answer stating reported inhibition for "CC(C)(C#N)NC(=O)C(=O)c1c(-c2ccccc2)cc2ccccn12" . 5

Give a short answer stating reported inhibition for "CC(=O)Nc1ccc(NC(=O)CSc2nc3nc(-c4cccs4)cc(C(F)(F)F)c3c(=O)[nH]2)cc1" . 5.7

Give a short answer stating reported inhibition for "Cc1ccc(C(=O)NCCNc2ccc([N+](=O)[O-])cc2C(F)(F)F)cc1" . 16.4

Give a short answer stating reported inhibition for "COc1ccc(OCC(=O)Nc2cccc(NC(=O)c3ccco3)c2)cc1" . 1.8

Give a short answer stating reported inhibition for "Cc1ccc(COc2ccc(-c3nnco3)cc2)cc1" . -78.6

----------
Documented inhibition across a set of molecules
- experiment-description: inhibition of NOD2-driven NF-kB reporter – cell-based, luminescence, uHTS, HEK293 (AID 1566)
- measurement-setup: HEK293 NOD2/NF-kB luciferase reporter, at 4 µM, active compounds read high
In all, about 290,000 compounds went through this assay and about 1,800 (0.62%) were called active. What follows is part of a selection rich in actives, with near analogues and random picks from the rest.
Give the quantity in %, number only.

Solved cases below.
INSERT INTO results (mol, output_unit, val) VALUES
  ('Cc1ccc(OCC(=O)c2cc(C)n(C)c2C)c([N+](=O)[O-])n1', '%', 32.9),
  ('CCOc1ccc(N(CC(=O)N2CCN(c3ccccc3OC)CC2)S(=O)(=O)c2ccc(F)cc2)cc1', '%', -13),
  ('Cc1ccc(OCC(=O)c2cc(C)n(C3CC3)c2C)c([N+](=O)[O-])n1', '%', 11.3),
  ('Cc1cc(-c2ccc([N+](=O)[O-])cc2)nc2ccccc12', '%', -13.5),
  ('O=[N+]([O-])c1ccc(-c2c(O)c3ccccc3c3nc4ccccc4nc23)cc1', '%', 58.6),
  ('Cc1cccc2cc(CN(Cc3ccco3)C(=O)Nc3cccc(C#N)c3)c(Cl)nc12', '%', 55.3),
  ('O=C(/C=C/c1ccccc1)NC(=S)NNC(=O)c1cnccn1', '%', 20.5),
  ('Cc1ccc(NC(=O)N(Cc2ccco2)Cc2cc3cc(C)cc(C)c3nc2Cl)cc1', '%', -17.3),
  ('CCOC(=O)C1CCN(S(=O)(=O)c2cc(C(=O)OC)n(C)c2)CC1', '%', 18.2),
  ('Cc1cc(C(=O)COc2cccnc2[N+](=O)[O-])c(C)n1-c1ccccc1', '%', 20.6);

Give a short answer stating reported inhibition for "Cc1cc(C(=O)CN2C(=O)c3ccccc3C2=O)c(C)n1Cc1cccs1" . 19

Give a short answer stating reported inhibition for "S=C(Nc1cc(Cl)cc(Cl)c1)N1CCN(c2ccccn2)CC1" . 14.1

Give a short answer stating reported inhibition for "CCOC(=O)c1ccc(CC(=O)c2ccc(O)cc2O)o1" . 67.3

Give a short answer stating reported inhibition for "Cc1cc(C)c2nc(Cl)c(CN(Cc3ccco3)C(=O)Nc3ccccc3C)cc2c1" . -17.6

Give a short answer stating reported inhibition for "N/C(=N\N=C/c1ccc(Br)cc1)N/N=C\c1ccc(Br)cc1" . -5.9

Give a short answer stating reported inhibition for "Cc1ccc2cccc(OCC(=O)c3cc(C)n(Cc4ccco4)c3C)c2n1" . -10.4

Give a short answer stating reported inhibition for "CCn1c(=O)cc(OCC(=O)N2CCc3ccccc32)c2ccccc21" . 17.9

----------
- experiment-description: inhibition of NOD2-driven NF-kB reporter – cell-based, luminescence, uHTS, HEK293 (AID 1566)
- measurement-setup: HEK293 NOD2/NF-kB luciferase reporter, at 4 µM, active compounds read high
The whole screen tested about 290,000 compounds, of which about 1,800 (0.62%) were called active. Only a selection was taken, and actives are over-represented in it overall.
observable: inhibition (%)
Give the quantity in %, number only.

Solved cases below.
INSERT INTO results (molecule, val) VALUES
  ('C=CCN=C1NN=C(c2ccc3c(c2)OCCO3)CS1', 37.7),
  ('COc1ccc(N=Cc2cc(Cc3ccccc3Cl)cc([N+](=O)[O-])c2O)cc1OC', -10.2),
  ('CCN(CCCNC(=O)C1CCN(S(=O)(=O)N2CCC3(CC2)OCCO3)CC1)c1ccccc1', 5.4);

Turning now to a further record.
Give a short answer stating reported inhibition for CCOC(=O)N1CCN(S(=O)(=O)N2CCCC(C(=O)NCCCN3CC(C)CC(C)C3)C2)CC1 (centres undefined) . -13.2

----------
- experiment-description: inhibition of NOD2-driven NF-kB reporter – cell-based, luminescence, uHTS, HEK293 (AID 1566)
- measurement-setup: HEK293 NOD2/NF-kB luciferase reporter, at 4 µM, active compounds read high
Out of some 290,000 compounds screened, about 1,800 (0.62%) were called active. This excerpt belongs to a sample that is enriched for actives.
observable: inhibition (%)
Give the quantity in %, number only.

Give a short answer stating reported inhibition for "COc1cccc(C(=O)O/N=C(\C)c2cnccn2)c1" . 4.6

Give a short answer stating reported inhibition for "C/C(=N/NC(=O)CN1CCN(Cc2ccccc2Cl)CC1)c1cccs1" . 20

Give a short answer stating reported inhibition for "CCOC(=O)Cc1ccc(NC(=O)c2ccccc2Br)cc1" . -12.2

Give a short answer stating reported inhibition for Cc1cc([N+](=O)[O-])ccc1NC(=O)C(C)N1CCN(c2ccccn2)CC1 (stereo not given) . 12

Give a short answer stating reported inhibition for "N#CC(=C=[N-])c1nc2ccccc2nc1-[n+]1cccc(NC(=O)c2cccs2)c1" . 10

Give a short answer stating reported inhibition for O=C(O)CC(NC(=O)c1cccc([N+](=O)[O-])c1)c1ccc2c(c1)OCO2 (stereo not given) . 14.8

Give a short answer stating reported inhibition for N#CC1=C(SCc2ccccc2)NC(=O)CC1c1cccc(O)c1 (stereo not given) . 12.9

Give a short answer stating reported inhibition for "COc1cc(/C=C2\CC/C(=C\c3cc(OC)c(OC)c(OC)c3)C2=O)cc(OC)c1OC" . -18.8

Give a short answer stating reported inhibition for "Cc1cc(NC(=O)CSc2nnnn2C)n(-c2ccccc2)n1" . 6.4

Give a short answer stating reported inhibition for COc1ccccc1CNC(=O)C1CC(c2c(Cl)cccc2Cl)=NO1 (stereo not given) . 8.6

Give a short answer stating reported inhibition for "O=C1Nc2ccccc2S/C1=C\C(=O)N1CCCC1" . -4

Give a short answer stating reported inhibition for "COc1cc(/C=C2\CCOC2=O)cc(OC)c1OC" . -11.1

Give a short answer stating reported inhibition for "COCCCn1c(SCC(=O)Nc2ccc(NC(C)=O)cc2)nc2sc3c(c2c1=O)CCC3" . 11.9

Give a short answer stating reported inhibition for "CC(C)(C)c1ccc(C(=O)Nc2ccc(CC(=O)O)cc2)o1" . 71.6

Give a short answer stating reported inhibition for "CCOC(=O)Cc1ccc(NC(=O)c2ccc([N+](=O)[O-])cc2)cc1" . -1.9

Give a short answer stating reported inhibition for "CC(=O)c1sc(NC(=O)C(C)C)nc1C" . 8.3

Give a short answer stating reported inhibition for "Oc1ccc(-c2nc3ccccc3s2)cc1" . -198

Give a short answer stating reported inhibition for "COC(=O)Cc1ccc(NC(=O)c2ccc(NC(=O)c3ccco3)cc2)cc1" . 0.9

Give a short answer stating reported inhibition for "CC(=O)c1sc(NC(=O)C2(F)C(F)(F)C(F)(F)C(F)(F)C(F)(F)C2(F)F)nc1C" . 55.2

Give a short answer stating reported inhibition for "Cc1ccc(NC(=O)Cc2ccccc2)c(C)c1" . -14.9
